Tested on: GPAT
Experiment: GPAT acyl-CoA substrate specificity, linseed microsomal membranes
Type: biochemical
Details: 0.2 mM acyl-CoA, 5 mM [14C] G3P, 5 minutes
Method: All the procedures were carried out at 4° C. […] The specificity of the GPAT was studied to verify whether the enzyme has a preference for certain acyl-CoAs, in particular to determine whether the GPAT from oil seed plants converts LCPUFA-CoAs. […] After incubation for 5 minutes, the lipids were extracted by the method of Bligh & Dyer, and the radioactivity incorporated in complex lipids was determined.
quantityKind: Percentage incorporation in comparison with the incorporation of oleic acid (%)
Expressed in %, but write only the number.

>  <molecule>
CCCCCCCCCCCCCCCC(=O)SCCNC(=O)CCNC(=O)[C@H](O)C(C)(C)COP(=O)(O)OP(=O)(O)OC[C@H]1O[C@@H](n2cnc3c(N)ncnc32)[C@H](O)[C@@H]1OP(=O)(O)O

>  <resultValue>
90

$$$$

We now examine a further compound.
Please fill in: Percentage incorporation in comparison with the incorporation of oleic acid reported for "CCCCCCCC/C=C\CCCCCCCC(=O)SCCNC(=O)CCNC(=O)[C@H](O)C(C)(C)COP(=O)(O)OP(=O)(O)OC[C@H]1O[C@@H](n2cnc3c(N)ncnc32)[C@H](O)[C@@H]1OP(=O)(O)O" = 100

###

Test system: LPAAT
Assay: LPAAT acyl-CoA substrate specificity, linseed microsomal membranes
Format: biochemical
Settings: 20 nmol acyl-CoA, sn-1-oleoyl-lysophosphatidic acid, DTNB assay
Entries and their measured Percentage incorporation in comparison with the incorporation of oleic acid follow.
Expressed in %, but write only the number.

>  <molecule>
CCCCCCCCCCCCCCCCCC(=O)SCCNC(=O)CCNC(=O)[C@H](O)C(C)(C)COP(=O)(O)OP(=O)(O)OC[C@H]1O[C@@H](n2cnc3c(N)ncnc32)[C@H](O)[C@@H]1OP(=O)(O)O

>  <testTarget>
LPAAT

>  <resultValue>
30

$$$$

Hey, LPAAT data for "CCCCCCCC/C=C\CCCCCCCC(=O)SCCNC(=O)CCNC(=O)[C@H](O)C(C)(C)COP(=O)(O)OP(=O)(O)OC[C@H]1O[C@@H](n2cnc3c(N)ncnc32)[C@H](O)[C@@H]1OP(=O)(O)O" : Percentage incorporation in comparison with the incorporation of oleic acid came out at 100

Hey, LPAAT data for "CCCCC/C=C\C/C=C\CCCCCCCC(=O)SCCNC(=O)CCNC(=O)[C@H](O)C(C)(C)COP(=O)(O)OP(=O)(O)OC[C@H]1O[C@@H](n2cnc3c(N)ncnc32)[C@H](O)[C@@H]1OP(=O)(O)O" : Percentage incorporation in comparison with the incorporation of oleic acid came out at 120

Hey, LPAAT data for "CCCCCCCCCCCCCCCC(=O)SCCNC(=O)CCNC(=O)[C@H](O)C(C)(C)COP(=O)(O)OP(=O)(O)OC[C@H]1O[C@@H](n2cnc3c(N)ncnc32)[C@H](O)[C@@H]1OP(=O)(O)O" : Percentage incorporation in comparison with the incorporation of oleic acid came out at 25

###

Test system: LPAAT
Experiment: LPAAT acyl-CoA substrate specificity, linseed microsomal membranes
Format: biochemical
Conditions: 20 nmol acyl-CoA, sn-1-oleoyl-lysophosphatidic acid, DTNB assay
Entries and their measured Percentage incorporation in comparison with the incorporation of oleic acid follow.
Expressed in %, but write only the number.

Previously resolved entries follow.
>  <molecule>
CCCCC/C=C\C/C=C\C/C=C\C/C=C\CCCC(=O)SCCNC(=O)CCNC(=O)[C@H](O)C(C)(C)COP(=O)(O)OP(=O)(O)OC[C@H]1O[C@@H](n2cnc3c(N)ncnc32)[C@H](O)[C@@H]1OP(=O)(O)O

>  <resultValue>
19

$$$$
>  <molecule>
CCCCCC/C=C\CCCCCCCC(=O)SCCNC(=O)CCNC(=O)[C@H](O)C(C)(C)COP(=O)(O)OP(=O)(O)OC[C@H]1O[C@@H](n2cnc3c(N)ncnc32)[C@H](O)[C@@H]1OP(=O)(O)O

>  <resultValue>
140

$$$$

We now examine a further compound.
Hey, LPAAT data for "CCCCCCCCCCCCCC(=O)SCCNC(=O)CCNC(=O)[C@H](O)C(C)(C)COP(=O)(O)OP(=O)(O)OC[C@H]1O[C@@H](n2cnc3c(N)ncnc32)[C@H](O)[C@@H]1OP(=O)(O)O" : Percentage incorporation in comparison with the incorporation of oleic acid came out at 30

###

Entries and their measured Percentage incorporation in comparison with the incorporation of oleic acid follow.
Tested on: LPAAT
Assay: LPAAT acyl-CoA substrate specificity, sunflower microsomal membranes
Format: biochemical
Conditions: 20 nmol acyl-CoA, sn-1-oleoyl-lysophosphatidic acid, DTNB assay
Protocol: All the procedures were carried out at 4° C. The cotyledons of maturing sunflower seeds and linseed were harvested approximately 10 days after anthesis and suspended in 0.1 M sodium phosphate buffer (pH 7.2), comprising 0.33 M sucrose and 0.1% BSA (free from fatty acids). After comminution in a glass homogenizer, the homogenate was centrifuged for 30 minutes at 20 000×g. The supernatant was filtered through one layer of Miracloth and centrifuged for 90 minutes in an ultracentrifuge at 100 000×g. […]
Expressed in %, but write only the number.

Previously resolved entries follow.
>  <compound>
CCCCCCCC/C=C\CCCCCCCC(=O)SCCNC(=O)CCNC(=O)[C@H](O)C(C)(C)COP(=O)(O)OP(=O)(O)OC[C@H]1O[C@@H](n2cnc3c(N)ncnc32)[C@H](O)[C@@H]1OP(=O)(O)O [Oleoyl-CoA, oleoyl-CoA]

>  <testTarget>
LPAAT

>  <resultValue>
100

$$$$
>  <compound>
CCCCCCCCCCCCCCCC(=O)SCCNC(=O)CCNC(=O)[C@H](O)C(C)(C)COP(=O)(O)OP(=O)(O)OC[C@H]1O[C@@H](n2cnc3c(N)ncnc32)[C@H](O)[C@@H]1OP(=O)(O)O [Palmitoyl-CoA, palmitoyl-CoA]

>  <testTarget>
LPAAT

>  <resultValue>
15

$$$$

We now examine a further compound.
Hey, LPAAT data for CCCCC/C=C\C/C=C\C/C=C\C/C=C\CCCC(=O)SCCNC(=O)CCNC(=O)[C@H](O)C(C)(C)COP(=O)(O)OP(=O)(O)OC[C@H]1O[C@@H](n2cnc3c(N)ncnc32)[C@H](O)[C@@H]1OP(=O)(O)O [Arachidonoyl-CoA, arachidonyl-CoA] : Percentage incorporation in comparison with the incorporation of oleic acid came out at 18
